- Protocol: Half life in Swiss Webster mouse at 0.3 mg/kg, po administered as cassette dosing
- Format: ADME, organism-based
- Set-up: dose 0.3 mg/kg, route oral
- Recorded Conditions: Swiss Webster, in vivo
Property Name: half-life (h)
Please state the figure in h; there is no need to write the unit.

Check out these entries, answers already filled in.
CCC(C)C(=O)N1CCC(NC(=O)Nc2ccc(OC(F)(F)F)cc2)CC1 (stereo unspecified); 6
O=C(Nc1ccc(C(F)(C(F)(F)F)C(F)(F)F)cc1)NC1CCN(C(=O)CC(F)(F)F)CC1; 18.9
CC(C)C(=O)N1CCC(NC(=O)Nc2ccc(C(F)(F)F)cc2)CC1; 6

Recorded result, "O=C(Nc1ccc(C(F)(F)F)cc1)NC1CCN(S(=O)(=O)CC(F)(F)F)CC1" , half-life: 25

Value of measured half-life for the entry CCC(C)C(=O)N1CCC(NC(=O)NC2CCCCCC2)CC1 (stereo unspecified) : 8.4

Reported half-life ( CCC(C)C(=O)N1CCC(NC(=O)Nc2ccc(C(F)(F)F)cc2)CC1 (stereo unspecified) ) = 6

The compound "CC[C@H](C)C(=O)N1CCC(NC(=O)Nc2ccc(C(F)(F)F)cc2)CC1" showed half-life equal to 5

The compound listed as "CS(=O)(=O)N1CCC(NC(=O)Nc2ccc(OC(F)(F)F)cc2)CC1" shows half-life equal to 15

Sure, the documented half-life for "CC(C)C(=O)N1CCC(NC(=O)Nc2ccc(OC(F)(F)F)cc2)CC1" is 9

Lookup result for "CS(=O)(=O)N1CCC(NC(=O)Nc2ccc(C(F)(F)F)cc2)CC1" ; measured half-life: 22

Recorded result, "O=C(Nc1ccc(C(F)(F)F)cc1)NC1CCN(C(=O)CC(F)(F)F)CC1" , half-life: 15.4

// provenance: ChEMBL document CHEMBL3351722
